The values you see were collected from patent US20210196654A1.

test: Repeated dose 28 day toxicokinetics; details: male, Sprague Dawley, rat, in vivo, po, 10 mg/kg
endpoint_label: AUC(0-inf) (ng·h/mL)

1) CN[C@]1(c2ccccc2Cl)CCCCC1=O ... 181

---

experiment: Repeated dose 28 day toxicokinetics; details: male, Sprague Dawley, rat, in vivo, po, 6 mg/kg, t1/2, Day 1, male rats, 6 mg/kg oral
endpoint_label: half-life

1. CN[C@]1(c2ccccc2Cl)CCCCC1=O ... 48 min

---

Measured Cmax, listed per entry.
assay: Single dose crossover study in healthy volunteers, pharmacokinetics; settings: both, human, plasma, po, 100 mg, Cmax, geometric mean, plasma analyte after single dose esketamine 100 mg oral tablet, 15 subjects
endpoint_label: Cmax (ng/mL)

1. CN[C@]1(c2ccccc2Cl)CCCCC1=O ... 65.3
2. N[C@]1(c2ccccc2Cl)CCCCC1=O [(S)-norketamine] ... 352
3. N[C@]1(c2ccccc2Cl)CCC[C@H](O)C1=O ... 189

---

experiment: Repeated dose 28 day toxicokinetics; conditions: male, Sprague Dawley, rat, in vivo, po, 10 mg/kg, AUC0-t, Day 28, male rats, 10 mg/kg oral
endpoint_label: AUC(0-t) (ng·h/mL)

1) CN[C@]1(c2ccccc2Cl)CCCCC1=O [esketamine] ... 179

---

assay: Repeated dose 28 day toxicokinetics; conditions: male, Sprague Dawley, rat, in vivo, po, 10 mg/kg, AUC0-t, Day 1, male rats, 10 mg/kg oral
endpoint_label: AUC(0-t) (ng·h/mL)

1. CN[C@]1(c2ccccc2Cl)CCCCC1=O [esketamine] ... 175

---

test: Repeated dose 28 day toxicokinetics; settings: male, Sprague Dawley, rat, in vivo, po, 6 mg/kg, tmax, Day 1, male rats, 6 mg/kg oral
endpoint_label: Tmax

1. CN[C@]1(c2ccccc2Cl)CCCCC1=O ... 10.2 min

---

Test: Repeated dose 28 day toxicokinetics
Settings: male, Sprague Dawley, rat, in vivo, po, 10 mg/kg, t1/2, Day 28, male rats, 10 mg/kg oral
Source text: The objective of the study was to assess the potential toxicity, neurobehavioral effects, and toxicokinetics (TK) of esketamine when administered orally, via gavage, to Sprague Dawley rats for 28 days and to evaluate recovery during a 14-day drug-free period. Fifty male and 50 female rats were randomized into 4 groups (15/sex/Groups 1 and 4; 10/sex/Groups 2 and 3). […]
endpoint_label: half-life (min)

1. CN[C@]1(c2ccccc2Cl)CCCCC1=O ... 36

---

test: Repeated dose 28 day toxicokinetics; conditions: female, Sprague Dawley, rat, in vivo, po, 10 mg/kg
endpoint_label: AUC(0-inf) (ng·h/mL)

1. CN[C@]1(c2ccccc2Cl)CCCCC1=O [esketamine] ... 440

---

assay: Repeated dose 28 day toxicokinetics; details: female, Sprague Dawley, rat, in vivo, po, 10 mg/kg, t1/2, Day 1, female rats, 10 mg/kg oral
endpoint_label: half-life (min)

1. CN[C@]1(c2ccccc2Cl)CCCCC1=O [esketamine] ... 42

---

test: Repeated dose 28 day toxicokinetics; settings: male, Sprague Dawley, rat, in vivo, po, 30 mg/kg
endpoint_label: AUC(0-inf)

1) CN[C@]1(c2ccccc2Cl)CCCCC1=O ... 585 ng·h/mL

---

assay: Repeated dose 28 day toxicokinetics; conditions: female, Sprague Dawley, rat, in vivo, po, 10 mg/kg, Cmax, Day 28, female rats, 10 mg/kg oral
endpoint_label: Cmax (ng/mL)

1. CN[C@]1(c2ccccc2Cl)CCCCC1=O ... 768

---

test: Repeated dose 28 day toxicokinetics; details: male, Sprague Dawley, rat, in vivo, po, 6 mg/kg, Cmax, Day 28, male rats, 6 mg/kg oral
endpoint_label: Cmax (ng/mL)

1) CN[C@]1(c2ccccc2Cl)CCCCC1=O [esketamine] ... 113

---

Measured Cmax, listed per entry.
assay: Single dose crossover study in healthy volunteers, pharmacokinetics; conditions: both, human, plasma, iv, 0.3 mg/kg, Cmax, geometric mean, plasma analyte after single dose esketamine 0.3 mg/kg iv, 15 subjects
endpoint_label: Cmax (ng/mL)

1. N[C@]1(c2ccccc2Cl)CCCCC1=O [(S)-norketamine] ... 42.2
2. CN[C@]1(c2ccccc2Cl)CCCCC1=O [esketamine] ... 94.5
3. N[C@]1(c2ccccc2Cl)CCC[C@H](O)C1=O [(2S,6S)-OH-Norketamine] ... 24.8

---

test: Repeated dose 28 day toxicokinetics; conditions: female, Sprague Dawley, rat, in vivo, po, 10 mg/kg, AUC0-t, Day 1, female rats, 10 mg/kg oral
endpoint_label: AUC(0-t) (ng·h/mL)

1) CN[C@]1(c2ccccc2Cl)CCCCC1=O [esketamine] ... 418

---

assay: Repeated dose 28 day toxicokinetics; conditions: male, Sprague Dawley, rat, in vivo, po, 30 mg/kg, tmax, Day 1, male rats, 30 mg/kg oral
endpoint_label: Tmax (min)

1) CN[C@]1(c2ccccc2Cl)CCCCC1=O ... 10.2

---

test: Repeated dose 28 day toxicokinetics; settings: female, Sprague Dawley, rat, in vivo, po, 20 mg/kg, t1/2, Day 28, female rats, 20 mg/kg oral
endpoint_label: half-life (min)

1. CN[C@]1(c2ccccc2Cl)CCCCC1=O ... 36

---

test: Repeated dose 28 day toxicokinetics; settings: male, Sprague Dawley, rat, in vivo, po, 10 mg/kg, Cmax, Day 1, male rats, 10 mg/kg oral
endpoint_label: Cmax (ng/mL)

1) CN[C@]1(c2ccccc2Cl)CCCCC1=O ... 179

---

experiment: Repeated dose 28 day toxicokinetics; details: male, Sprague Dawley, rat, in vivo, po, 6 mg/kg, AUC0-t, Day 1, male rats, 6 mg/kg oral
endpoint_label: AUC(0-t) (ng·h/mL)

1) CN[C@]1(c2ccccc2Cl)CCCCC1=O ... 99

---

Test: Single dose crossover study in healthy volunteers, pharmacokinetics
Conditions: both, human, plasma, iv, 0.3 mg/kg, tmax, median, plasma analyte after single dose esketamine 0.3 mg/kg iv
Description: A randomized, open-label 4-way crossover study in 16 healthy male and female subjects was held wherein said subjects were placed in a randomly assigned order and administered esketamine. Each subject was assigned to 1 of 4 treatment sequences according to a randomization code such that 4 subjects were assigned to each treatment sequence. There was a wash-out period of at least 7 days between dosing periods with doses consisting of either oral or intravenous esketamine hydrochloride. […]
Measured Tmax, listed per entry.
endpoint_label: Tmax (h)

1) N[C@]1(c2ccccc2Cl)CCCCC1=O [(S)-norketamine] ... 1.25
2) N[C@]1(c2ccccc2Cl)CCC[C@H](O)C1=O [(2S,6S)-OH-Norketamine] ... 3
3) CN[C@]1(c2ccccc2Cl)CCCCC1=O [esketamine] ... 1

---

assay: Single dose crossover study in healthy volunteers, pharmacokinetics; conditions: both, human, plasma, po, 20 mg, tmax, median, plasma analyte after single dose esketamine 20 mg oral tablet
endpoint_label: Tmax (h)

1) N[C@]1(c2ccccc2Cl)CCCCC1=O [(S)-norketamine] ... 1
2) N[C@]1(c2ccccc2Cl)CCC[C@H](O)C1=O ... 1.5
3) CN[C@]1(c2ccccc2Cl)CCCCC1=O ... 0.75

---

test: Repeated dose 28 day toxicokinetics; conditions: female, Sprague Dawley, rat, in vivo, po, 10 mg/kg, tmax, Day 28, female rats, 10 mg/kg oral
endpoint_label: Tmax (min)

1) CN[C@]1(c2ccccc2Cl)CCCCC1=O ... 10.2

---

Measured AUC(0-t), listed per entry.
experiment: Single dose crossover study in healthy volunteers, pharmacokinetics; conditions: both, human, plasma, po, 20 mg, AUC0-t, geometric mean, plasma analyte after single dose esketamine 20 mg oral solution
endpoint_label: AUC(0-t)

1) N[C@]1(c2ccccc2Cl)CCCCC1=O [(S)-norketamine] ... 405 ng·h/mL
2) CN[C@]1(c2ccccc2Cl)CCCCC1=O ... 23.4 ng·h/mL
3) N[C@]1(c2ccccc2Cl)CCC[C@H](O)C1=O ... 366 ng·h/mL

---

Assay: Repeated dose 28 day toxicokinetics
Details: female, Sprague Dawley, rat, in vivo, po, 2 mg/kg, t1/2, Day 1, female rats, 2 mg/kg oral
Text: The objective of the study was to assess the potential toxicity, neurobehavioral effects, and toxicokinetics (TK) of esketamine when administered orally, via gavage, to Sprague Dawley rats for 28 days and to evaluate recovery during a 14-day drug-free period. Fifty male and 50 female rats were randomized into 4 groups (15/sex/Groups 1 and 4; 10/sex/Groups 2 and 3). […]
endpoint_label: half-life (min)

1) CN[C@]1(c2ccccc2Cl)CCCCC1=O ... 30

---

test: Repeated dose 28 day toxicokinetics; conditions: female, Sprague Dawley, rat, in vivo, po, 20 mg/kg, tmax, Day 28, female rats, 20 mg/kg oral
endpoint_label: Tmax (min)

1) CN[C@]1(c2ccccc2Cl)CCCCC1=O ... 10.2

---

Measured Cmax, listed per entry.
Assay: Single dose crossover study in healthy volunteers, pharmacokinetics
Conditions: both, human, plasma, po, 20 mg, Cmax, geometric mean, plasma analyte after single dose esketamine 20 mg oral tablet, 15 subjects
Excerpt: A randomized, open-label 4-way crossover study in 16 healthy male and female subjects was held wherein said subjects were placed in a randomly assigned order and administered esketamine. Each subject was assigned to 1 of 4 treatment sequences according to a randomization code such that 4 subjects were assigned to each treatment sequence. There was a wash-out period of at least 7 days between dosing periods with doses consisting of either oral or intravenous esketamine hydrochloride. […]
endpoint_label: Cmax

1) N[C@]1(c2ccccc2Cl)CCCCC1=O [(S)-norketamine] ... 89.7 ng/mL
2) N[C@]1(c2ccccc2Cl)CCC[C@H](O)C1=O ... 45.8 ng/mL
3) CN[C@]1(c2ccccc2Cl)CCCCC1=O ... 11.9 ng/mL
